assay_details: Primary qHTS for inhibitors of nuclear receptor binding SET domain protein 2 (NSD2) in an isogenic RCH-ACV NSD2 p.E1099K mutant (9B) (AID 1645876); note: nearly all actives have a fitted effect of over 70% in size
assay_context: RCH-ACV (leukaemia line) NSD2 E1099K (9B) viability, CellTiter-Glo, 72 h; series mostly up to 44.9 µM
Inconclusive results are not listed. Calls of active or inactive are those of the source. Calls come from the whole dose curve; as a rule, active = well fitted inhibition curve with a large enough effect; inconclusive = small, poorly fitted or top-dose-only effect; inactive = flat fitted curve, though single readings scatter.
Return exactly one item of active, inactive

Illustrative cases are given below, each with its answer.
O=C(O)CP(=O)(O)O = inactive
CC1=NS(=O)(=O)c2cc(Cl)ccc2N1 = inactive
O=C(O)CN(CCN(CC(=O)O)CC(=O)O)CCN(CC(=O)O)CC(=O)O = inactive
O=C(O)CCCCCCCC(=O)O = inactive
CC(=O)[C@@]1(O)CC[C@H]2[C@@H]3CCC4=CC(=O)CC[C@]4(C)[C@H]3CC[C@@]21C = inactive
CN(C)CCOC(=O)COc1ccc(Cl)cc1 = inactive

Now let's try a different one.
Dear colleague, could you share the recorded outcome for CCO/C([O-])=N/c1c[n+](N2CCOCC2)no1 when you have a moment?
inactive

====

assay_details: Cell Viability - LYMP2-022 (AID 987);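 note: cells exposed to compound for 24 hr; nearly all actives have a fitted effect of over 55% in size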
assay_context: LYMP2-022 lymphoblastoid cell viability; series mostly up to 92.2 µM
Inconclusive results are not listed. Calls of active or inactive are those of the source. The call rests on the fitted dose curve; in most records, active means well fitted cell-killing curve with a large enough effect; inconclusive means small, poorly fitted or top-dose-only effect; inactive means flat fitted curve, though single readings scatter.
Pick one and only one: active, inactive

Before answering, review these 4 worked examples.
O=c1[nH]c(=O)n([C@H]2C[C@H](O)[C@@H](CO)O2)cc1Br = inactive
COc1cc(Cc2cnc(N)nc2N)cc(OC)c1OC = inactive
CN=C(NC#N)NCCSCc1nc[nH]c1C = inactive
NC(=O)N1c2ccccc2C=Cc2ccccc21 = inactive

Dear all, I need the recorded test outcome for NC(=Nc1ccccc1)Nc1ccccc1 , thank you.
inactive

Record request — test call for CCCCNC(=O)NS(=O)(=O)c1ccc(C)cc1
inactive

Tell me the recorded outcome of this test for Nc1ncn([C@@H]2O[C@H](CO)[C@@H](O)[C@H]2O)c(=O)n1 .
active

====

System: TAB165
assay_details: qHTS profiling for inhibitors of Plasmodium falciparum proliferation (AID 504749); note: nearly all actives have a fitted effect of over 60% in size
assay_context: P. falciparum in erythrocytes, SYBR Green DNA, 72 h; series mostly up to 28.7 µM
Inconclusive results are not listed. Activity calls are given as the source filed them. Calls follow the shape of the dose curve; as a rule, active = well fitted inhibition curve with a large enough effect; inconclusive = small, poorly fitted or top-dose-only effect; inactive = flat fitted curve, though single readings scatter.
Respond using exactly one of the listed classes: active, inactive

Answered examples (4):
COc1cc2c(cc1OC)-c1cc(=Nc3c(C)cc(C)cc3C)n(C)c(=O)n1CC2 = active
CCCCCCCC/C=C\CCCCCCCC(=O)NCc1ccc(O)c(OC)c1 = active
CCNC(=O)N1CCN(CCCC(c2ccc(F)cc2)c2ccc(F)cc2)CC1 = active
CN1CCN(C2=Nc3ccccc3Oc3ccc(Cl)cc32)CC1 = inactive

Hi, sorry to bother you, what did the test record for C[N+](C)(C)CCCCCCCCCC[N+](C)(C)C ?
active

Call for entry CC(=O)Nc1nnc(S(N)(=O)=O)s1 :
inactive

Could you please tell me the result logged for Cc1nc2sccn2c(=O)c1CCN1CCC(=C(c2ccc(F)cc2)c2ccc(F)cc2)CC1 in this assay?
active

Dear all, I need the recorded test outcome for CCn1ccnc1CC1COc2ccccc2O1 (configuration not stated) , thank you.
inactive

====

experimental_target: Metallo-beta-lactamase type 2 (Klebsiella pneumoniae) (UniProt C7C422)
Sequence (C7C422 whole entry, looked up): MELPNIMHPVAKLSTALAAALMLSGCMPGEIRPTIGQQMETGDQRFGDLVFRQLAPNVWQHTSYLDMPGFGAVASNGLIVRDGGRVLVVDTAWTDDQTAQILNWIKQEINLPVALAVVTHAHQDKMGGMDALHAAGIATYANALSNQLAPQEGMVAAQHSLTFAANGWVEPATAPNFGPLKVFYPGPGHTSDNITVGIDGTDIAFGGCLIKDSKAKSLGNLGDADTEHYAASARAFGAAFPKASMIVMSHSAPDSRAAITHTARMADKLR
assay_details: qHTS to identify inhibitors of the New Delhi Metallo-beta-lactamase (NDM): assay validation screen against the NCATS LOPAC Collection (AID 1794843);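 note: nitrocefin turnover by NDM-1 measured as 485 nm absorbance at plateau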
assay_context: NDM-1 enzyme, nitrocefin hydrolysis, absorbance 485 nm; series mostly up to 38.4 µM
Inconclusive results are not listed. Calls of active or inactive are those of the source. The call rests on the fitted dose curve; in most records, active means well fitted curve in the direction sought with a large enough effect; inconclusive means small, poorly fitted or top-dose-only effect, or another doubt; inactive means no such curve, though single readings can be large or run the other way.
Valid outcomes are listed here; reply with one: TRUE = active, FALSE = inactive

Completed entries (count: 3):
O=C1NCN(c2ccccc2)C12CCN(CCCC(c1ccc(F)cc1)c1ccc(F)cc1)CC2 = FALSE
CCN(CC)CCNC(=O)c1cc(S(C)(=O)=O)ccc1OC = FALSE
CC(=O)Oc1cc(C(C)C)c(OCCN(C)C)cc1C = FALSE

Assay result, entry C#CCN(C)CCCOc1ccc(Cl)cc1Cl — outcome?
FALSE

Assay result, entry CNCCC(Oc1ccccc1OC)c1ccccc1 (stereo unspecified) — outcome?
FALSE

Which outcome was assigned to CCCCCCCC/C=C\CCCCCCCC(=O)NCc1ccc(O)c(OC)c1 in this test?
FALSE

So what was the verdict on CCC(=O)c1ccc2c(c1)N(CCCN(C)C)c1ccccc1S2 in this test?
FALSE

Outcome logged for NS(=O)(=O)c1cc2c(cc1Cl)NC(C1CC3C=CC1C3)NS2(=O)=O (stereo unspecified) in this assay:
FALSE
